Just for reference, patent US20070128217A1 is where these values come from.

# Tested on: antibodies in sera from SARS patients (sera 1a, 1b, 2, 6, 37, 62, London, SARS-yellow, SARS-green)
# Assay type: binding, human
Below, each of the sequences is paired with its reported Binding of serum SARS-yellow to looped/cyclic peptides of protein M of SARS-CoV Urbani value.

## Task Bench note: what Binding of serum SARS-yellow to looped/cyclic peptides of protein M of SARS-CoV Urbani did `IIKLVFLWLLWPVTL` show?
## Result 0.4

---
## Task Bench note: what Binding of serum SARS-yellow to looped/cyclic peptides of protein M of SARS-CoV Urbani did `LMESELVIGAVIIRG` show?
## Result 0.5

## Task Bench note: what Binding of serum SARS-yellow to looped/cyclic peptides of protein M of SARS-CoV Urbani did `SFRLFARTRSMWSFN` show?
## Result 0.5

## Task Bench note: what Binding of serum SARS-yellow to looped/cyclic peptides of protein M of SARS-CoV Urbani did `LLWPVTLACFVLAAV` show?
## Result 0.9

## Task Bench note: what Binding of serum SARS-yellow to looped/cyclic peptides of protein M of SARS-CoV Urbani did `TNILLNVPLRGTIVT` show?
## Result 0.4
